- Tested on: CEM-SS cells
- assay procedure: XTT assay, cellular toxicity in uninfected CEM-SS cells
- Format: cell-based
- experimental conditions: compounds evaluated with HIV LAV BRU strain (footnote e), 8640 min, read-out: TD50 (the source's name)
Consider the following molecules; for each one, report its CC50.

Which CC50 is reported for this molecule? [N-]=[N+]=NC[C@H](Cn1ccc(N)nc1=O)OCP(=O)(O)O [(S)-2'-azidomethyl-PMEC]
> 500 µM

Which CC50 is reported for this molecule? C=C[C@@H](Cn1ccc(N)nc1=O)OCP(=O)(O)O [(S)-2'-vinyl-PMEC]
> 500 µM

Which CC50 is reported for this molecule? [N-]=[N+]=NCC[C@@H](Cn1ccc(N)nc1=O)OCP(=O)(O)O [(S)-2'-azidoethyl-PMEC]
> 500 µM

###

- System: human immunodeficiency virus LA BRU strain
- assay procedure: XTT assay, anti-HIV activity with LAV BRU strain
- Format: cell-based
- experimental conditions: Human immunodeficiency virus 1, CEM-SS, 144 h, HIV LAV BRU strain (footnote e), read-out: ED50 (the source's name)
- Experimental: Compounds were evaluated for activity against human immunodeficiency virus (HIV RF strain obtained from Luc Montagnier, Institut Pasteur, Paris, France) in CEM-SS cells (P. L. Nara, et al., in AIDS Res. Human. Retroviruses, 1987, 3, 283-302) using the XTT assay described by O. S. Weislow, et al., in J. Natl. Cancer Instit., 1989, 81, 577-586. […] The optical density reading is proportional to the number of viable cells. […] ^e The compounds were evaluated using human immunodeficiency virus LA […]
pEC50: −log10 of the molar value.
endpoint name: pEC50

Which pEC50 is reported for this compound? [N-]=[N+]=NCC[C@@H](Cn1cnc2c(O)nc(N)nc21)OCP(=O)(O)O [(S)-2'-azidoethyl-PMEG]
< 3.30
